assay info: Pharmacokinetic study in rats
Assay type: in vivo, Sprague Dawley rats
condition notes: female, Sprague Dawley, rat, plasma, iv, 2.5 mg/kg, 2.5 mg kg^−1 in DXR i.v., bicompartmental model, read-out: t 1/2 beta (converted)
outcome measure: half-life

- smiles: "COc1cccc2c1C(=O)c1c(O)c3c(c(O)c1C2=O)C[C@@](O)(C(=O)CO)C[C@@H]3O[C@H]1C[C@H](N)[C@H](O)[C@H](C)O1"
  reported value: "1.32 h"

====

assay info: Pharmacokinetic study in rats
Format: in vivo, Sprague Dawley rats
condition notes: 2.5 mg kg^−1 in DXR i.v.

- smiles: "COc1cccc2c1C(=O)c1c(O)c3c(c(O)c1C2=O)C[C@@](O)(C(=O)CO)C[C@@H]3O[C@H]1C[C@H](N)[C@H](O)[C@H](C)O1"
  AUC0‐inf [ng·h/mL]: 60

====

assay info: Pharmacokinetic study in rats
Type: in vivo, Sprague Dawley rats
condition notes: female, Sprague Dawley, rat, plasma, iv, 2.5 mg/kg, 2.5 mg kg^−1 in DXR i.v., bicompartmental model, read-out: t 1/2 alpha (converted)

- compound: "COc1cccc2c1C(=O)c1c(O)c3c(c(O)c1C2=O)C[C@@](O)(C(=O)CO)C[C@@H]3O[C@H]1C[C@H](N)[C@H](O)[C@H](C)O1 [DXR, Doxorubicin]"
  half-life, min: 34.4

====

assay info: Toxicological study in rats (blood count, plasma biochemistry, histology)
Format: in vivo, Sprague Dawley rats
condition notes: plasma biochemistry, 48 h

- compound: "COc1cccc2c1C(=O)c1c(O)c3c(c(O)c1C2=O)C[C@@](O)(C(=O)CO)C[C@@H]3O[C@H]1C[C@H](N)[C@H](O)[C@H](C)O1 [DXR, Doxorubicin]"
  Creatinine: "16 µM"

Origin of the recorded values: paper PMC11469322
